Recorded TGI values for a group of compounds are listed next.
- Tested on: OVCAR-8 ovarian
- assay_overview: NCI tumour cell line growth inhibition, 48 h

Consider the following illustrative entries.
{"columns": ["compound", "TGI"],
 "data": [
  ["C=CCNC(=S)/N=C/C(C(=O)Nc1ccccc1C)=C(\\C)O", "> 100 µM"],
  ["CC1OC(=O)C(C(C)C)NC(=O)C(C(C)C)OC(=O)C(C(C)C)NC(=O)C(C)OC(=O)C(C(C)C)NC(=O)C(C(C)C)OC(=O)C(C(C)C)NC(=O)C(C)OC(=O)C(C(C)C)NC(=O)C(C(C)C)OC(=O)C(C(C)C)NC1=O (stereo not given)", "3.46 µM"],
  ["CCn1c2ccccc2c2cc(Nc3cc(C)[nH]c(=O)n3)ccc21", "> 100 µM"],
  ["O=C1C(c2c(O)[nH]c3ccc(S(=O)(=O)NCCO)cc23)=Nc2ccccc21", "> 100 µM"],
  ["O=C(Nc1ccc(Cl)cc1)c1cc(S(=O)(=O)Nc2n[nH]c(=O)n2-c2ccccc2)c(S)cc1Cl", "> 100 µM"]
]}

Record summary for CC(=O)c1c2c(cc3c1CC1(C3)Cc3cc4c(c(C(=O)O)c3C1)CCC4)CCC2 (stereo not given) : reported TGI = > 100 µM

Record summary for O=S(=O)(O)c1cc(S(=O)(=O)O)c2c(N=Nc3ccc(N=Nc4ccccc4)cc3)c(O)ccc2c1 : reported TGI = > 100 µM

Record summary for Cc1cc2nc3c4ccc(Br)cc4n(CCN(C)C)c3nc2cc1C : reported TGI = 11.8 µM

Record summary for COC(=O)c1ccc(NCC2=C(Br)C(=O)C=CC2=O)cc1Cl : reported TGI = 47.1 µM

Record summary for CCOC(=O)C(C/C=C/CO)N(C)C(=O)OC(C)(C)C (stereo not given) : reported TGI = > 100 µM

###

- Test system: SNB-75 CNS
- assay_overview: NCI tumour cell line growth inhibition, 48 h; in the data active means GI50 below about 0.43 µM; inactive means the rest
Respond using exactly one of the listed classes: active, inactive

{"columns": ["compound", "answer_label"],
 "data": [
  ["O=C(/C=C/c1cccc2ccccc12)Nc1ncc(Cc2ccccc2)s1", "active"],
  ["Oc1ccc(Cl)cc1/C=N\\NC(=S)N/N=C/c1cc(Cl)ccc1O", "inactive"],
  ["O=C(/C=C/c1ccco1)c1ccc(Nc2nc(Nc3ccc(F)cc3)nc(Nc3ccc(F)cc3)n2)cc1", "inactive"],
  ["COc1cc2c(cc1OCCCOc1ccc(-c3nc4ccc(N5CCN(C)CC5)cc4[nH]3)cc1)N=C[C@@H]1CCCN1C2=O", "active"]
]}

query: Outcome? O=C1/C(=C\c2ccccc2)C2OCC=C3CN4CCC56c7ccccc7N1C5C2C3CC46 (stereo not given)
result: inactive

###

- Tested on: MOLT-4 leukemia
- assay_overview: NCI tumour cell line growth inhibition, 48 h
Where a SMILES comes first, the peptide text is derived from it. The star is where a group is joined. Trt = c1ccc(C(c2ccccc2)(c2ccccc2)*)cc1; Cbz = O=C(OCc1ccccc1)*
Recorded GI50 values for a group of molecules are listed next.

{"columns": ["molecule", "GI50"],
 "data": [
  ["Nc1nc(N)c2c(n1)NC(c1sc(Cl)nc1Cl)CC(c1ccc3c(c1)OCO3)=N2 (stereo not given)", "5.91 µM"],
  ["O=C(Nc1cccc(C(F)(F)F)c1)c1cc2ccccc2cc1O", "3.37 µM"],
  ["Cc1cc2nc(-c3c(F)cccc3Cl)n(Cc3c(F)cccc3Cl)c2cc1C", "30.4 µM"]
]}

Record summary for O=C(C=C=Nc1ccccc1)C(=O)N=C=Cc1ccccc1 : reported GI50 = 1.14 µM

Record summary for COC(=O)C(CSC(c1ccccc1)(c1ccccc1)c1ccccc1)NC(=O)C(CC(N)=O)NC(=O)OCc1ccccc1 (stereo not drawn) (Cbz-Asn-Cys(Trt)-OMe; configuration not given here) : reported GI50 = 2.1 µM

###

Recorded TGI values for a group of molecules are listed next.
- Tested on: SN12C renal
- assay_overview: NCI tumour cell line growth inhibition, 48 h

{"columns": ["molecule", "tgt", "result"],
 "data": [
  ["COC1CC(OC2C(C)OC(OC3C(C)OC(OC4C(C)OC(O[C@H]5CC[C@@]6(C)C(=CC[C@]7(O)[C@@H]6C[C@@H](O)[C@@]6(C)[C@]7(O)CC[C@@]6(O)C(C)=O)C5)CC4OC)CC3OC)CC2OC)OC(C)C1O (some centres undefined)", "SN12C renal", "> 12.5 µM"],
  ["O=C(/C=C/c1ccccc1)CCC1C(=O)NC(=S)NC1=O", "SN12C renal", "> 100 µM"],
  ["C=CC[C@H](N=C(SC)SC)C(=O)N1C(=O)N(C)[C@@H](C)[C@H]1c1ccccc1", "SN12C renal", "> 100 µM"]
]}

Let us move to another entry and its TGI.
# value of TGI, SN12C renal, item CC(=O)NC(CCCN(Cc1ccccc1)C(=O)N(C)N=O)C(=O)NCc1ccccc1 (centres undefined) = > 100 µM

###

- Tested on: MDA-MB-231 breast
- assay_overview: NCI tumour cell line growth inhibition, 48 h
assay_endpoint: TGI

{"columns": ["compound", "tgt", "result"],
 "data": [
  ["NS(=O)(=O)c1ccc(N=Nc2ccc(O)c(C(=O)O)c2)cc1", "MDA-MB-231 breast", "> 100 µM"]
]}

Record summary for COc1cc(-c2cc(=O)c3c(O)c(OC)c(OC)c(OC)c3o2)cc(OC)c1OC : reported TGI = 38.5 µM

Record summary for CC(=O)OCC1OC(n2c(-c3ccccc3)c(N=Nc3ccc(C)cc3)c(C)c(C#N)c2=S)C(OC(C)=O)C(OC(C)=O)C1OC(C)=O (stereo not given) : reported TGI = > 100 µM

Record summary for O=Cc1ccc(N2CCN(c3ccc(C=O)cc3)CC2)cc1 : reported TGI = > 100 µM

Record summary for Cc1ccc2c(c1C)C(=O)/C(=C/c1cccc(C)c1C(=O)O)C2 : reported TGI = > 100 µM

Record summary for Cc1cc(Br)cc(C)c1NC(=O)C(=O)Nn1c(=S)[nH]c2ccccc2c1=O : reported TGI = > 100 µM

Record summary for CNC(c1ccncc1)C(NC)c1ccncc1 (stereo not given) : reported TGI = > 100 µM

Record summary for COc1cc(Cn2c(-c3ccccc3)cc3c2-c2oncc2CC3)cc(OC)c1 : reported TGI = > 24.2 µM

Record summary for CCCOC(=O)C1C2CCC(O2)C1C(=O)O (stereo not given) : reported TGI = > 100 µM

Record summary for COc1ccc(C2=Nc3c/c(=C\c4c(O)[nH]c5cc(Cl)ccc45)ccc3=N2)cc1 : reported TGI = 19.6 µM

###

- System: MOLT-4 leukemia
- assay_overview: NCI tumour cell line growth inhibition, 48 h
Recorded TGI values for a group of compounds are listed next.
# output: bare number, implied unit µM

Consider the following illustrative entries.
{"columns": ["compound", "number"],
 "data": [
  ["CC(NC(=O)C(Cc1ccc(OC(=O)c2ccccc2)cc1)NC(=O)OC(C)(C)C)C(=O)NCC(=O)NC(Cc1ccccc1)C(=O)NN (stereo unspecified)", 69.4],
  ["COc1ccc(C2=Nc3c/c(=C\\c4c(O)[nH]c5cc(Cl)ccc45)ccc3=N2)cc1", 29.9],
  ["CN(C)CN(C)c1nc(N(C)C)nc(N(C)CN(C)C)n1", 69.5]
]}

# value of TGI, MOLT-4 leukemia, item CC(C)(C)[Si](C)(C)OC[C@H](/C=C\CCCC(=O)O)NC1(c2ccccc2)c2ccccc2-c2ccccc21 = 33.9

# value of TGI, MOLT-4 leukemia, item Oc1ccc(Cl)cc1/C=N\NC(=S)N/N=C/c1cc(Cl)ccc1O = 7.62

# value of TGI, MOLT-4 leukemia, item Nc1cc2c3c(cccc3c1)C(=O)N(c1ccc(OCCN3CCCC3)cc1)C2=O = 55.8

# value of TGI, MOLT-4 leukemia, item CCCCCCCCCCCCCCCCOCC(O)CO (stereo unspecified) = 29.6

###

Recorded TGI values for a group of compounds are listed next.
- System: 786-0 renal
- assay_overview: NCI tumour cell line growth inhibition, 48 h
# output: bare number, implied unit µM

{"columns": ["structure", "display_unit", "TGI"],
 "data": [
  ["O=C1N(c2ccccc2)C(=S)/C(=C/c2ccc(Cl)cc2)N1c1ccc(Cl)cc1", "µM", 64.2],
  ["O=C(C=C=Nc1ccccc1)C(=O)N=C=Cc1ccccc1", "µM", 3.9],
  ["O=C1c2cc([N+](=O)[O-])sc2C(=O)c2c([N+](=O)[O-])csc21", "µM", 1.66]
]}

# value of TGI, 786-0 renal, item CC(C)(C)Sc1nnc(SC(C)(C)C)c2c(=O)[nH]nc(SC(C)(C)C)c12 = 22.3

###

Recorded TGI values for a group of compounds are listed next.
- Test system: HCT-15 colon
- assay_overview: NCI tumour cell line growth inhibition, 48 h

{"columns": ["compound", "tgt", "result"],
 "data": [
  ["O=C(/C=C/c1cccc2ccccc12)Nc1ncc(Cc2ccccc2)s1", "HCT-15 colon", "> 100 µM"],
  ["CCOc1cc2c(cc1O)C(N)C[C@@H]1[C@@H]2CC[C@]2(C)[C@@H](O)CC[C@@H]12 (stereo not given in full)", "HCT-15 colon", "> 100 µM"],
  ["O=c1[nH]c2ccc(CC(=S)N3CCCCC3)cc2s1", "HCT-15 colon", "> 100 µM"],
  ["CC1(C)CC(=O)C2=C(C1)OC1(CC2c2ccc(Cl)cc2)CC(c2ccc(Cl)cc2)C2=C(CC(C)(C)CC2=O)O1 (stereo not given)", "HCT-15 colon", "> 100 µM"],
  ["CN(C)CCCNC(=O)c1cn2c(ccc3sc4ccccc4c(=O)c32)n1", "HCT-15 colon", "10.7 µM"]
]}

Record summary for CCOC(=O)CCC(NC(=O)c1ccc(Nc2nc3ccccc3nc2C(=O)OCC)cc1)C(=O)OCC (stereo not given) : reported TGI = > 100 µM

Record summary for CCOC(=O)c1cc(Br)c(-c2cc(C)co2)[nH]1 : reported TGI = > 100 µM

Record summary for Cc1ccc(-c2n[nH]c(=O)c3noc(-c4ccc(C)cc4)c23)cc1 : reported TGI = > 100 µM

Record summary for COC(=O)C(NC(=O)OC(C)(C)C)P(=O)(OC)OC (stereo not given) : reported TGI = > 100 µM

Record summary for COc1ccc2c(c1)c1c3n2CCNN=C3CCC1 : reported TGI = > 100 µM
